Each recorded value in this set is attributed to patent US20120135912A1.

molecular target: T1, human VLA4-Fc (alpha4-Fc/beta1-Fc heterodimer) (human); test: SPR (BIACORE), VLA4-Fc captured by anti-human IgG, 1 mM MnCl2, 1:1 Langmuir
T1 construct: Soluble heterodimer from CHO cells, Protein A purified; also called VLA-Fc
T1 sequence (chain, as listed by the source limits assumed, form in doubt, chain 1 of 2): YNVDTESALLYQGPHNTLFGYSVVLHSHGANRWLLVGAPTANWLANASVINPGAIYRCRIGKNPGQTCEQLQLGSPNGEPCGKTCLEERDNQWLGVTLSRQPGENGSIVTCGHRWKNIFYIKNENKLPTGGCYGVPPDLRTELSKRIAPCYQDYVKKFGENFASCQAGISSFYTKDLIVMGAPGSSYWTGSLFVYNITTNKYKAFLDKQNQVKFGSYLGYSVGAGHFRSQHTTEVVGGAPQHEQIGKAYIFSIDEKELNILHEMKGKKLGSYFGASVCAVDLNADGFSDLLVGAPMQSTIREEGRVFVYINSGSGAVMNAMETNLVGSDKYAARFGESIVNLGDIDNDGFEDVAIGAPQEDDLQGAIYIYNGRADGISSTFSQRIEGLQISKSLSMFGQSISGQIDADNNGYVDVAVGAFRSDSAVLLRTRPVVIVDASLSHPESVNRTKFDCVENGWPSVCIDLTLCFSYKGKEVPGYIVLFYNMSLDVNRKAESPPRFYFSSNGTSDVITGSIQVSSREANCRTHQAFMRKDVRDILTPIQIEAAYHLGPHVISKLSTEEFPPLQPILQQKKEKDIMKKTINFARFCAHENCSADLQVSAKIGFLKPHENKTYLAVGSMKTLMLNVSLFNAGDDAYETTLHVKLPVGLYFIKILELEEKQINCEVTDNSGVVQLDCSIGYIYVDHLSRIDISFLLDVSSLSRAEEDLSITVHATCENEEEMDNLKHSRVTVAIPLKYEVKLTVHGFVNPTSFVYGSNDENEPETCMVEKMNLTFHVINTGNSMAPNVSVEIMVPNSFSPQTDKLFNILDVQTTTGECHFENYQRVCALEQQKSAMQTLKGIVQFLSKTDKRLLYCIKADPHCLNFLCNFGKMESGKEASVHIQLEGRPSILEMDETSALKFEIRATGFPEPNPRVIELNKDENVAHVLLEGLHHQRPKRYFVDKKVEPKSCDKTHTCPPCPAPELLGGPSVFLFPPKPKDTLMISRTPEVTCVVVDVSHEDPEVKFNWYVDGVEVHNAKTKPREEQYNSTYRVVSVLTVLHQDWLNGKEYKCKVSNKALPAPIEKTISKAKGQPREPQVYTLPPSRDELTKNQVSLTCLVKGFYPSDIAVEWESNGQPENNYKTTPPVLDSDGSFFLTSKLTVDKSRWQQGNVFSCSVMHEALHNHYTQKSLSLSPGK
T1 sequence (chain, as listed by the source limits assumed, form in doubt, chain 2 of 2): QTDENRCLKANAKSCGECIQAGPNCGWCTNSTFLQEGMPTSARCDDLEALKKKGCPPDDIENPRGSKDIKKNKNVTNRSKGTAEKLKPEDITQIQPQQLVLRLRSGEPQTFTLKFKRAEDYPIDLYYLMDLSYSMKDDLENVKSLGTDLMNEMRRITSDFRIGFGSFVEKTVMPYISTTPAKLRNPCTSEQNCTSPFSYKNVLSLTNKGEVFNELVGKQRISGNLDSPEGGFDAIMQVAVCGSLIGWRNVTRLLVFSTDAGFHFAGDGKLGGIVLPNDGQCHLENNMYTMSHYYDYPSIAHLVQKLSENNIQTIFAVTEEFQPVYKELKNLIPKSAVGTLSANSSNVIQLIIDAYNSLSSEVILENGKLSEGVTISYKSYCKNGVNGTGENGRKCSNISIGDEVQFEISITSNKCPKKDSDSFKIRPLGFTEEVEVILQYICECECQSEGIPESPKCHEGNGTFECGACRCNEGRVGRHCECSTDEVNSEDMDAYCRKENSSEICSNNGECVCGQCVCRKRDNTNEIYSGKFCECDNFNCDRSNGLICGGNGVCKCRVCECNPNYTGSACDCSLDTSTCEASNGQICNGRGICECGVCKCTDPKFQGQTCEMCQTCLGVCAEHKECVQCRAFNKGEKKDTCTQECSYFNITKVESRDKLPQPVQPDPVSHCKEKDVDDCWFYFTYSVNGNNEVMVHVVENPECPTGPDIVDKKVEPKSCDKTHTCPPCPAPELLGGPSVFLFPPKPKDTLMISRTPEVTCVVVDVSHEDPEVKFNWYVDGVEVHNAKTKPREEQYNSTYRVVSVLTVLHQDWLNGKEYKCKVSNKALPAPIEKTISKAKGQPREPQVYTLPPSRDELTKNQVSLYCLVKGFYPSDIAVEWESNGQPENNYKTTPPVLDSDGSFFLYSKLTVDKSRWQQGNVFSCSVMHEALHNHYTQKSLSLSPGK
recorded endpoint: binding affinity for VLA4-Fc relative to human 2D-VCAM-1 (fold)
# number only, unit fold dropped from output

2D-VCAM-1 variant Clone 150 (ligand, not shown: His tag of the E. coli construct) FKIETTPESRYLAQIGDSVSLTCSTTGCESPLFFWRPQLDAPLNGKVTNEGTTSTLTMNPVSFGNEHSYLCTARCESRSLEKGIQVEIYSFPKDPEIHLSGPLEAGKPITVKCSVADVYPFDRLEIDLLKGDHLMKSQEFLEDADRKSLETKSLEVTFTPVIEDIGKVLVCRAKLHIDEMDSVPTVRQAVKELQVYISP	36

Sample 2D-VCAM-1 variant Clone 47 (ligand, also called Clone 047; not shown: His tag) FKIETTPESRYLAQIGDSVSLTCSTTGCESPFFSWRPLLDSPLNGKVTNEGTTSTLTMNPVSFGNEHSYLCTATCESRKLEKGIQVEIYSFPKDPEIHLSGPLEAGKPITVKCSVADVYPFDRLEIDLLKGDHLMKSQEFLEDADRKSLETKSLEVTFTPVIEDIGKVLVCRAKLHIDEMDSVPTVRQAVKELQVYISP — what was its binding affinity for VLA4-Fc relative to human 2D-VCAM-1? 103

Sample Q38L-2D-VCAM-1 (ligand, also called Q38L 2D-VCAM-1 polypeptide; not shown: His tag) FKIETTPESRYLAQIGDSVSLTCSTTGCESPFFSWRTLIDSPLNGKVTNEGTTSTLTMNPVSFGNEHSYLCTATCESRKLEKGIQVEIYSFPKDPEIHLSGPLEAGKPITVKCSVADVYPFDRLEIDLLKGDHLMKSQEFLEDADRKSLETKSLEVTFTPVIEDIGKVLVCRAKLHIDEMDSVPTVRQAVKELQVYISP — what was its binding affinity for VLA4-Fc relative to human 2D-VCAM-1? 8

Sample 2D-VCAM-1 variant Clone 59 (ligand, also called Clone 059; not shown: His tag) FKIETTPESRYLAQIGDSVSLTCSTTGCESPFFSWRPLLDSPLNGKVTNEGTTSTLTMNPVSFGNEHSYLCTATCESRKLEKGIQVEIYSFPKDPEIHLSGPLEAGKPITVKCSVADVYPFDRLEIDLLKGDHLMKSQEFFEDAAWKSLETKSLEVTFTPVIEDIGKVLVCRAKLHIDEMDSVPTVRQAVKELQVYISP — what was its binding affinity for VLA4-Fc relative to human 2D-VCAM-1? 303
